Attribution: PubChem BioAssay AID422

Consider the following compounds; for each one, report its inhibition.
test.system: 14-3-3 protein gamma (Homo sapiens)
test: modulators of 14-3-3 gamma protein binding, primary screen, biochemical, fluorescence polarization (AID 422);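 further: 0% = protein plus tracer without compound and 100% = blank with tracer alone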
assay.setup: FP, 14-3-3gamma / TMR-pS259-Raf peptide binding; at 40 µM; stronger effect = higher value
Out of some 160,000 compounds screened, about 310 (0.19%) were called active. For the sample, actives were picked, then their nearest neighbours and some compounds at random.
Numbers only, in %.

Study these solved cases before continuing.
compound=Cc1ccc2nc3c(nc2c1)C(=O)c1ccccc1C3=O test_system="14-3-3 protein gamma (Homo sapiens)" measured_endpoint=inhibition result_number=-16.2
compound=Cc1c(-c2nc3ccccc3c(=O)[nH]2)sc2nc(-c3ccccc3)nc(N)c12 test_system="14-3-3 protein gamma (Homo sapiens)" measured_endpoint=inhibition result_number=-34.5
compound="CCC(C)(C(=O)NC1CCCCC1)N(C(=O)CC1NC(=O)NC1=O)c1ccccc1 (stereo unspecified)" test_system="14-3-3 protein gamma (Homo sapiens)" measured_endpoint=inhibition result_number=-2.16

Working through the 3 compounds below one at a time, give inhibition for each.
1. COC(=O)c1ccc(NC(=O)c2ccco2)cc1
2. Cc1sc(NC(=O)c2cc(=O)c3ccccc3o2)nc1-c1ccccc1
3. O=C(OCC(=O)N1CCCC1)c1ccco1

Return:
-6.08
0.55
-8.04

Working through the 5 compounds below one at a time, give inhibition for each.
1. O=C(O)c1ccccc1C(=O)Nc1cccc2cccnc12
2. Cc1ccccc1N1C(=O)C2C3C=CC(C4CC34)C2C1=O (stereo unspecified)
3. CC1Cc2nc(SCC(=O)Nc3cccc(C(F)(F)F)c3)n(C)c(=O)c2S1 (stereo unspecified)
4. O=C(Oc1ccc(C2NC(=O)c3c(sc4c3CCCC4)N2)cc1)c1ccccc1 (stereo unspecified)
5. CSCCC(NS(=O)(=O)c1cccs1)C(=O)Nc1ccc(F)cc1 (stereo unspecified)

Return:
1. 52.6
2. 8.35
3. -7.37
4. -5.95
5. -1.64
